Target: DnaC protein (hexamer assembled on DnaB) in the binary DnaB–DnaC complex (Escherichia coli, UniProt P0AEF0)
Sequence (P0AEF0 whole entry): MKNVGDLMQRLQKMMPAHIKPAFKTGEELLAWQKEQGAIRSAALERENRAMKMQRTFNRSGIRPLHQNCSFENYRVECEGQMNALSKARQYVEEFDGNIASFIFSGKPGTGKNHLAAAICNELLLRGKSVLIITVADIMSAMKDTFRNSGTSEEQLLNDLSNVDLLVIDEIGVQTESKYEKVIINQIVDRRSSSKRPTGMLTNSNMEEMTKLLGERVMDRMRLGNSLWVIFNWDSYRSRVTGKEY
Sequence (P0ACB0 2-471 partner): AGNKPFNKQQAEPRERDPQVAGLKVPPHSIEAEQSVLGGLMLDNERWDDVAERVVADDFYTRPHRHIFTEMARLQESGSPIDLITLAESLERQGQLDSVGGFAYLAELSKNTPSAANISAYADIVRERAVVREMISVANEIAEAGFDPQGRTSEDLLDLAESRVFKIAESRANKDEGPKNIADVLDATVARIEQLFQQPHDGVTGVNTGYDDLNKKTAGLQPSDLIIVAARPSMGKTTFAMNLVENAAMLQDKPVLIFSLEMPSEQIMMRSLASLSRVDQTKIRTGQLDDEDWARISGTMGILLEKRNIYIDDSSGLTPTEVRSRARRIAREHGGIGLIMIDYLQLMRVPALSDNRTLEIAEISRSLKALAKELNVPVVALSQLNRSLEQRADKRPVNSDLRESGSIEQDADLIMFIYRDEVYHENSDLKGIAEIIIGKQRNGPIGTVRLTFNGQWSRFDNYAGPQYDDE
Assay: fluorescence titration
pKd: −log10 of the molar value.
quantity_measured: pKd

In [3]: df
Out[3]:
                                   compound  test_value
0  CNc1ccccc1C(=O)O[C@H]1[C@@H](O)[C@H](n2cnc3c(N)ncnc32)O[C@@H]1CO[P@@](=O)(O)O[P@](=O)(O)OP(=O)(O)O [MANT-ATP]        5.38

Reference for the values: paper PMC3072150
